# PROCEDURE_DETAILS: Pharmacokinetics in rat plasma
# Type: in vivo
# COND: po, AUC0‒∞, rat plasma, oral administration, n = 5
PROPERTY: AUC (ng·h/mL)
# value in ng·h/mL; strip the unit string

Data request, read-out AUC, for COc1ccc2c(=O)oc3c(OC)cc(CC(O)CN(C)C)c4c(=O)oc1c2c34 (stereo not shown) [SMU-Y6] 844

====

# PROCEDURE_DETAILS: Pharmacokinetics in rat plasma
# Type: in vivo
# COND: po
PROPERTY: Tmax (h)
// units = h; emit number, no label

Looking for the measured Tmax of COc1ccc2c(=O)oc3c(OC)cc(CC(O)CN(C)C)c4c(=O)oc1c2c34 (stereo not shown) [SMU-Y6] , can you help? 3

====

# SUBJECT_OF_TEST: TLR2 (Homo sapiens)
PROPERTY: Kd
Give your result as the value with the unit written after it.

Can you look up Kd on TLR2 (Homo sapiens) for COc1ccc2c(=O)oc3c(OC)cc(CC(O)CN(C)C)c4c(=O)oc1c2c34 (stereo not shown) [SMU-Y6] ? 180 nM

====

# PROCEDURE_DETAILS: Pharmacokinetics in rat plasma
# Assay type: in vivo
# COND: ip, AUC0‒∞, rat plasma, intraperitoneal injection, n = 5
PROPERTY: AUC (ng·h/mL)
# number only, unit ng·h/mL dropped from output

Quick check: AUC of COc1ccc2c(=O)oc3c(OC)cc(CC(O)CN(C)C)c4c(=O)oc1c2c34 (stereo not shown) ? 2160

====

# PROCEDURE_DETAILS: Pharmacokinetics in rat plasma
# Format: in vivo
# COND: po
PROPERTY: Cmax (ng/mL)
Report as a plain number; the unit ng/mL is understood.

Which Cmax is reported for this compound? COc1ccc2c(=O)oc3c(OC)cc(CC(O)CN(C)C)c4c(=O)oc1c2c34 (stereo not shown) 52.3

====

# PROCEDURE_DETAILS: Pharmacokinetics in rat plasma
# Type: in vivo
# COND: ip
PROPERTY: Cmax (ng/mL)
Record the value in ng/mL, omitting the unit from your answer.

Item COc1ccc2c(=O)oc3c(OC)cc(CC(O)CN(C)C)c4c(=O)oc1c2c34 (stereo not shown) [SMU-Y6] has what recorded Cmax? 208

====

# PROCEDURE_DETAILS: Pharmacokinetics in rat plasma
# Type: in vivo
# COND: ip, AUC0‒t, rat plasma, intraperitoneal injection, n = 5
PROPERTY: AUC (ng·h/mL)
Kindly provide the numeric value in ng·h/mL only, without the unit symbol.

Any idea what its AUC is? The molecule is COc1ccc2c(=O)oc3c(OC)cc(CC(O)CN(C)C)c4c(=O)oc1c2c34 (stereo not shown) 1790

====

# SUBJECT_OF_TEST: TLR2 (Homo sapiens, UniProt O60603)
# Sequence (O60603 21-784): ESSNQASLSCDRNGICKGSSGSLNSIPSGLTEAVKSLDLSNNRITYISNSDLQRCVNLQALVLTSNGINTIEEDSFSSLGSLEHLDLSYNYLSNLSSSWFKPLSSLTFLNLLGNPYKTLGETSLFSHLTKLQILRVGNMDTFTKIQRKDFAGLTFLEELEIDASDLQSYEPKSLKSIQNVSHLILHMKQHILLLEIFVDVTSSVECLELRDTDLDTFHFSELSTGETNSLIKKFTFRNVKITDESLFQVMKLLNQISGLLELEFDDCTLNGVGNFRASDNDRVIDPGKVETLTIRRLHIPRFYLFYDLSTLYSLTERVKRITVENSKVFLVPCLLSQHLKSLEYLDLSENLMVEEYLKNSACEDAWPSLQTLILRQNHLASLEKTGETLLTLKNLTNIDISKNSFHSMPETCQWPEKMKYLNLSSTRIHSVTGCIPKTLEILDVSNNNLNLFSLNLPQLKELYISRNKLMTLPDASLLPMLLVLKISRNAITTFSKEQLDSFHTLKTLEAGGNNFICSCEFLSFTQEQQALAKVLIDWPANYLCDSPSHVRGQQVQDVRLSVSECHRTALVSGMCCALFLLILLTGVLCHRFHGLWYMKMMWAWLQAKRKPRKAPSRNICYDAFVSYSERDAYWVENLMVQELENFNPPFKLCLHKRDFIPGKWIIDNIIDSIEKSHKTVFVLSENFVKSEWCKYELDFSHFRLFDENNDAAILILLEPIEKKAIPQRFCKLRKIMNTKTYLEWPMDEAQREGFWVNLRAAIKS
# PROCEDURE_DETAILS: QUANTI-blue SEAP assay, Pam3CSK4-stimulated HEK-Blue hTLR2 cells
PROPERTY: pIC50
Interpret pIC50 as the negative base-10 log of the concentration measured in mol/L.

Find pIC50 (TLR2 (Homo sapiens, UniProt O60603)) for the entry COc1ccc2c(=O)oc3c(OC)cc(CC(O)CN(C)C)c4c(=O)oc1c2c34 (stereo not shown) [SMU-Y6] 6.96

====

# PROCEDURE_DETAILS: Pharmacokinetics in rat plasma
# Type: in vivo
# COND: po, t1/2, rat plasma, oral administration, n = 5
PROPERTY: half-life (h)
Numbers only here, please. The scale is h.

Give the measured half-life of COc1ccc2c(=O)oc3c(OC)cc(CC(O)CN(C)C)c4c(=O)oc1c2c34 (stereo not shown) . 11.5
